Origin of values: paper PMC2756588

Biological target: T1, Boi2, P39969
T1 sequence (P39969 32-116, looked up): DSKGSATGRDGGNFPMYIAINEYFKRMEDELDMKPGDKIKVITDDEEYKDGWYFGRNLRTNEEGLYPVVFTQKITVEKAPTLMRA
Assay: SPOT array
Conditions: median of control spots 1161
Endpoint name: SPOT intensity

Here's what some known entries look like.
{"Binder": "VRTRRRPPPPPIPST", "SPOT intensity": 1}
{"Binder": "PALPSLPPPPLLNVD", "SPOT intensity": 0}
{"Binder": "EREKALPPIPFTTTL", "SPOT intensity": 0}

1: PSRRAPLQLPQLVNK
2: NHSRSLFSLPGNQQS
3: AVPPPPPPPPLPESL
Could you please sort these 3 entries by SPOT intensity from high to low? Your answer should be the labels, listed in the requested order.
2, 3, 1
(2: 2, 3: 1, 1: 0)
